Please respond with reported protein stability index for every item in the list.
B1: GLTSCR2 (parent)
chain: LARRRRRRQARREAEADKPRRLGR

Variants of: B1
Test: protein stability index of a GFP-peptide fusion (GPS, HEK-293T) (PSI 1-6); higher = more stable;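 further: lentivirally expressed fusions sorted by FACS into six bins by GFP to DsRed ratio, PSI derived from sequencing read proportions per bin multiplied by bin number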
Conditions: c terminus: a fixed tail appended
Please reply with the value in numeric form only.

May I ask what protein stability index has been recorded for LARRRRRRQARFEAEADKPRRLGR ?
4.17

May I ask what protein stability index has been recorded for LARRRRRRQARREAESDKPRRLGR ?
3.77

May I ask what protein stability index has been recorded for LARRRCRRQARREAEADKPRRLGR ?
4.5

May I ask what protein stability index has been recorded for DARRRRRRQARREAEADKPRRLGR ?
5.28

May I ask what protein stability index has been recorded for LARRRRRRQARGEAEADKPRRLGR ?
4.45

May I ask what protein stability index has been recorded for LARRQRRRQARREAEADKPRRLGR ?
4.33

May I ask what protein stability index has been recorded for LADRRRRRQARREAEADKPRRLGR ?
4.56

May I ask what protein stability index has been recorded for LARRPRRRQARREAEADKPRRLGR ?
5.1

May I ask what protein stability index has been recorded for LARRRRRRQARYEAEADKPRRLGR ?
4.51

May I ask what protein stability index has been recorded for LARRRRRRQARREAEADKNRRLGR ?
4.58

May I ask what protein stability index has been recorded for LARRRRRRQARREAETDKPRRLGR ?
4.76

May I ask what protein stability index has been recorded for LARRRRRRQYRREAEADKPRRLGR ?
4.9

May I ask what protein stability index has been recorded for LARRRRRRQARREAEADKPRRDGR ?
5.31

May I ask what protein stability index has been recorded for LARRRRRRVARREAEADKPRRLGR ?
4.22

May I ask what protein stability index has been recorded for LARRRRRRQARREAEADKPRTLGR ?
4.83

May I ask what protein stability index has been recorded for LARRRRRRQARREAEADLPRRLGR ?
5.11

May I ask what protein stability index has been recorded for LARRRRRRQARREAEADKPMRLGR ?
4.38

May I ask what protein stability index has been recorded for LARRRRRRQAFREAEADKPRRLGR ?
4.09

May I ask what protein stability index has been recorded for LARRRRRRQARREARADKPRRLGR ?
3.99

May I ask what protein stability index has been recorded for LARRRRRRWARREAEADKPRRLGR ?
3.71

May I ask what protein stability index has been recorded for LARRRRRRQARCEAEADKPRRLGR ?
4.31

May I ask what protein stability index has been recorded for LARRRRRRQARREAHADKPRRLGR ?
4.55

May I ask what protein stability index has been recorded for LARRRRRRQARREAEADKPRRCGR ?
4.53

May I ask what protein stability index has been recorded for LARRRRRRQARREAEADKPRRWGR ?
4.62

May I ask what protein stability index has been recorded for LARRRRRRQAWREAEADKPRRLGR ?
4.53

May I ask what protein stability index has been recorded for LARRRRRRQARREAEADKPDRLGR ?
4.11

May I ask what protein stability index has been recorded for LARRRRRRQARREAEADKPRRLMR ?
4.17

May I ask what protein stability index has been recorded for LARRRRRRQTRREAEADKPRRLGR ?
4.21

May I ask what protein stability index has been recorded for LARRRRRRQARREAEADKPRGLGR ?
4.39

May I ask what protein stability index has been recorded for LARRRRRRQARREAEADKIRRLGR ?
3.81

May I ask what protein stability index has been recorded for LARRRRRRQARREAEADCPRRLGR ?
5.07

May I ask what protein stability index has been recorded for LTRRRRRRQARREAEADKPRRLGR ?
4.28

May I ask what protein stability index has been recorded for LARRNRRRQARREAEADKPRRLGR ?
5.32

May I ask what protein stability index has been recorded for LARRWRRRQARREAEADKPRRLGR ?
4.12

May I ask what protein stability index has been recorded for LARRRRKRQARREAEADKPRRLGR ?
5.11

May I ask what protein stability index has been recorded for LARRRRRRQARRYAEADKPRRLGR ?
4.4

May I ask what protein stability index has been recorded for LARRRRRRQARREAEADKPRNLGR ?
4.73

May I ask what protein stability index has been recorded for LARRRRRRQARREAEADKPRRLHR ?
4.79

May I ask what protein stability index has been recorded for LARRRRRRCARREAEADKPRRLGR ?
4.4

May I ask what protein stability index has been recorded for LARRRRRRQARREAEDDKPRRLGR ?
4.82

May I ask what protein stability index has been recorded for LARRRRRRQARREAEADKPRLLGR ?
4.36

May I ask what protein stability index has been recorded for LVRRRRRRQARREAEADKPRRLGR ?
3.51

May I ask what protein stability index has been recorded for LARRRFRRQARREAEADKPRRLGR ?
3.93

May I ask what protein stability index has been recorded for LARRRRRRQFRREAEADKPRRLGR ?
4.47

May I ask what protein stability index has been recorded for EARRRRRRQARREAEADKPRRLGR ?
5.22

May I ask what protein stability index has been recorded for LARRRRRRQARREAEAVKPRRLGR ?
3.99

May I ask what protein stability index has been recorded for LARRRRRRQARREAEADKPRRLGP ?
4.67

May I ask what protein stability index has been recorded for LARRRRRRYARREAEADKPRRLGR ?
4.33

May I ask what protein stability index has been recorded for LARRRRRRQARREAEADKPRRLKR ?
3.76

May I ask what protein stability index has been recorded for LARRRRRRQARREAEKDKPRRLGR ?
4.32

May I ask what protein stability index has been recorded for LARRDRRRQARREAEADKPRRLGR ?
4.52
